So I've got a bunch of compounds here, and I need their pIC50 values.
# Tested on: HEK-Blue TGFβ cell
# test-method-notes: HEK-Blue TGFβ cellular reporter gene assay (SEAP readout)
# Format: cell-based
# recorded-conditions: HEK-Blue TGFβ cells stimulated with TGF-β, 22-23 h incubation, SEAP read at 630 nm
Remember, pIC50 is on a log scale: it is -log10 of the molar concentration.

Return the recorded pIC50 value; entry: CCc1ccc(Oc2ccnc(Nc3cccc(CC(C)(C)C(=O)O)c3)c2)c(C)n1 [Example 133] 7.55

Report pIC50 for Cc1cc(Oc2ccnc(Nc3cccc(-c4nnn[nH]4)c3)c2)c(-c2ccccn2)nc1C [Example 13] 5.97

Given Cc1cc(Oc2ccnc(Nc3cccc(Cc4nnn[nH]4)c3)c2)c(-c2ccccn2)nc1C [Example 16] , respond with its pIC50. 6.41

###

# System: HEK-Blue TGFβ cell
# test-method-notes: HEK-Blue TGFβ cellular reporter gene assay (SEAP readout)
# Assay type: cell-based
# recorded-conditions: HEK-Blue TGFβ cells stimulated with TGF-β, 22-23 h incubation, SEAP read at 630 nm
attribute-measured: pIC50
The meaning of pIC50 here: minus log10 of the concentration in molar units.

Determine its reported pIC50: CCc1nc(C)c(Oc2ccnc(Nc3cccc(CC(C)(C)C(=O)O)c3)c2)cc1Cl 7.52

Read the entry Cc1ccc(Oc2ccnc(Nc3cccc(C(C)(C)C(=O)O)c3)c2)c(-c2ccccc2)n1 and write its reported pIC50. 8.15

Look up pIC50 of Cc1ccc(Oc2ccnc(Nc3ccc(F)c(CCc4nn[nH]n4)c3)c2)c(C)n1 and report it. 6.57

Return reported pIC50. Input compound: CC(C)(Cc1cccc(Nc2cc(Oc3cn(C4CC4)nc3C3CCOCC3)ccn2)c1)C(=O)O 6.68

Specify measured pIC50 for CCn1cc(Oc2ccnc(Nc3cccc(C(C)(C)C(=O)O)c3)c2)c(-c2ccccc2)n1 . 7.54

Give me measured pIC50, please, for this compound: Cc1cc(Oc2ccnc(Nc3ccc(F)c(CCc4nnn[nH]4)c3)c2)c(-c2ccccn2)nc1C 6.80

Hello, please tell me recorded pIC50 for this one: Cc1cc(Oc2ccnc(Nc3cccc(Cc4nnn(CC(=O)O)n4)c3)c2)c(-c2ccccn2)nc1C [Example 34A] 4.90

Specify pIC50 for Cc1nc(-c2ccccc2)c(Oc2ccnc(Nc3cccc(C(C)(C)C(=O)O)c3)c2)cc1C1CC1 and stop. 5.48

###

# Test system: HEK-Blue TGFβ cell
# test-method-notes: HEK-Blue TGFβ cellular reporter gene assay (SEAP readout)
# Assay type: cell-based
# recorded-conditions: HEK-Blue TGFβ cells stimulated with TGF-β, 22-23 h incubation, SEAP read at 630 nm
So I've got a bunch of compounds here, and I need their pIC50 values.
// field semantics: pIC50 = negative decimal log of concentration (mol/L)

Look up pIC50 of Cc1cc(Oc2ccnc(Nc3cccc(CCc4nn[nH]n4)c3)c2)c(C)nc1C [Example 188] and report it. 7.14

Return pIC50 for the following compound: Cc1ccc(Oc2ccnc(Nc3cccc(CCc4nn[nH]n4)c3)c2)c(-c2ccccc2)n1 [Example 52] 7.43

Answer with the recorded pIC50 for the compound listed here: CC(C)(C(=O)CO)c1cccc(Nc2cc(Oc3cn(C4CC4)nc3C3CCOCC3)ccn2)c1 [Example 159] 6.85

Note down pIC50 recorded for Cc1ccc(Oc2ccnc(Nc3cccc(C(C)(C)C(=O)O)c3)c2)c(-c2ccccc2C#N)n1 [Example 95] 6.54

Report measured pIC50; entry is Cc1cc(Oc2ccnc(Nc3cc(CCC(=O)O)ccn3)c2)c(-c2ccccn2)nc1C [Example 8] 6.23

// fetch pIC50 given entry CC(C)(C(=O)O)c1cccc(Nc2cc(Oc3cn(C4CC4)nc3C3CCCCC3)ccn2)c1 [Example 127] 7.92

Look up and report measured pIC50 for this entry: Cc1ccc(Nc2cc(Oc3cn(C4CC4)nc3C3CCOCC3)ccn2)cc1CC(=O)O [Example 115] 5.96
